Values were extracted from PubChem BioAssay (NCI).

Attribute: TGI
System: UACC-62 melanoma
Protocol summary: NCI tumour cell line growth inhibition, 48 h

Solved entries:
Molecule	Tested on	Measured property	Assay value
Cc1ccc2ccc3ccc(C)nc3c2n1	UACC-62 melanoma	TGI	> 100 µM
C/C(=N/c1[nH]c(=O)cc2c1C(=O)CC2)N(C)C	UACC-62 melanoma	TGI	> 200 µM
CCn1c(-c2nonc2N)nc2cncc(C(=O)NCCNC)c21	UACC-62 melanoma	TGI	> 25 µM

# TGI lookup, item CN(C)C(=S)N/N=C(\C(=N/NC(=S)N(C)C)c1ccccn1)c1ccccn1
32.8 µM

# TGI lookup, item Cc1ccc(-c2nc(N)c(C#N)c3c2CCOc2c-3ccc3ccccc23)cc1
> 100 µM

* * *

Tested on: OVCAR-4 ovarian
Protocol summary: NCI tumour cell line growth inhibition, 48 h
Measured property: TGI

# TGI lookup, item O=C(CN1C(=O)S/C(=C\C(Cl)=C\c2ccccc2)C1=O)NCCc1ccc(O)cc1
11.9 µM

# TGI lookup, item CCOC(=O)c1[nH]cc(C)c1-c1c[nH]c2ccccc12
> 100 µM

# TGI lookup, item COC(=O)/C(=N\NC(=S)NN)C(C(=O)OC)C(=O)C(=O)Nc1cccc(C(F)(F)F)c1 (stereo not given)
> 100 µM

# TGI lookup, item CC(C)(C)OC(=O)CC(NC(=O)OC(C)(C)C)C(=O)NC(C(=O)O)C(O)c1ccccc1 (stereo not given)
> 100 µM

# TGI lookup, item CC(C)(C)C1(O)C=C(O)C(=O)N1NC(=O)c1ccccc1Nc1ccccc1 (stereo not given)
> 100 µM

* * *

Test system: EKVX NSCLC
Protocol summary: NCI tumour cell line growth inhibition, 48 h
Attribute: TGI

Solved entries:
Compound	TGI
CC(=O)C1=C(C)N2C(=NC3=C(CCc4ccccc43)C2c2cccc(Br)c2)S1 (centres undefined)	> 100 µM
C[C@]12CC[C@H]3[C@@H](CCC4=CC(=O)CC[C@@]43C)[C@@H]1CC[C@@H]2C(=O)Nc1ccc([N+](=O)[O-])c(C(F)(F)F)c1	27.8 µM
CCN(CC)CCCC(Cc1ccccc1)Nc1c2ccc(Cl)cc2nc2ccc(OC)cc12 (centres undefined)	10.5 µM

Let us examine a further case.
# TGI lookup, item N#CCCOCN(CO)c1nc(N(CO)COCCC#N)nc(N(CO)COCCC#N)n1
93.7 µM

* * *

System: PC-3 prostate
Protocol summary: NCI tumour cell line growth inhibition, 48 h
Measured property: GI50

# GI50 lookup, item Cc1cc2cc3cc(C)c(N)cc3[n+](C)c2cc1N
1.7 µM

* * *

Tested on: COLO 205 colon
Protocol summary: NCI tumour cell line growth inhibition, 48 h
Measured property: TGI (µM)
State just the number; it will be interpreted in µM.

Solved entries:
Compound	Measured property	Uom	Assay value
Clc1ccc(C2=C(c3ccccc3)C(c3ccc(Cl)cc3)N3C(=N[C@H]4CCCC[C@@H]43)N2)cc1 (stereo partly specified)	TGI	µM	19.4
c1ccc(CN2CCCCC(Sc3ccccc3)CC2)cc1 (stereo unspecified)	TGI	µM	26.2

Let us examine a further case.
# TGI lookup, item CC1=CC(=O)c2c(C=O)c(O)c(O)c(C(C)C)c2C1=O
57.4

* * *

Tested on: 786-0 renal
Protocol summary: NCI tumour cell line growth inhibition, 48 h
Attribute: GI50

Molecule	Tested on	GI50
Oc1ccc(-c2cn3cc(Cl)sc3n2)cc1	786-0 renal	18200 nM
COc1ccc(-c2nn(-c3cccc(NC(=O)c4cccc(C(F)(F)F)c4)c3)cc2-c2ccncc2)cc1Cl	786-0 renal	2910 nM
C=C(C)[C@@H]1CC[C@]2(C(=O)O)CC[C@]3(C)[C@H](CC[C@@H]4[C@@]5(C)C/C(=C/c6ccc(OC)cc6)C(=O)C(C)(C)[C@@H]5CC[C@]43C)[C@@H]12	786-0 renal	2830 nM

# GI50 lookup, item CSC1=Nc2c(c(C)c(C)n2COC(CO)CO)C2=NC(=O)CC(C)N12 (centres undefined)
> 100000 nM

* * *

Attribute: TGI
System: HCT-15 colon
Protocol summary: NCI tumour cell line growth inhibition, 48 h

Solved entries:
Molecule	TGI
CCOC(=O)N/N=C(\Cc1ccc([N+](=O)[O-])cc1)OCC	> 100 µM
CNC(=O)C1CCCN1C(=O)C(Cc1cnc[nH]1)NC(=O)C1CCC(=O)N1 (stereo unspecified)	> 100 µM
NC(=O)CCC(CCC(N)=O)(CCC(N)=O)[N+](=O)[O-]	> 100 µM
O=NN/C(=C1\Nc2ccc([N+](=O)[O-])cc2NC1=O)C(O)c1ccc([N+](=O)[O-])cc1 (stereo unspecified)	> 100 µM
COc1ccc(C(=O)CC(=O)C(=O)Nc2ccc(C)c(C)c2)cc1	> 57.1 µM

# TGI lookup, item Cn1c(=O)n2c(-c3ccccc3)c(-c3ccccc3)n2c1=O
> 100 µM

# TGI lookup, item O=C(Nc1sccc1S(=O)(=O)c1ccc(Cl)cc1)c1ccccc1
> 100 µM

# TGI lookup, item O=S(=O)(CCNCc1ccc(-c2ccc3ncnc(Nc4ccc(OCc5cccc(F)c5)c(Cl)c4)c3c2)o1)c1ccccc1
> 25 µM

# TGI lookup, item COc1ccc2oc(=O)c(-c3nc4ccccc4o3)cc2c1
> 100 µM

# TGI lookup, item c1ccc(CN2CCCCC(Sc3ccccc3)CC2)cc1 (stereo unspecified)
33.5 µM

# TGI lookup, item CC(=O)c1ccc(NC(=O)C(=O)C(C(=O)c2ccc(Cl)c(Cl)c2)C2OC(=O)c3ccccc32)cc1 (stereo unspecified)
34.7 µM

* * *

Attribute: TGI
System: HT29 colon
Protocol summary: NCI tumour cell line growth inhibition, 48 h

Compound	Tested on	TGI
CC(C)[Si](OC1=C(C(=O)N(C)c2ccccc2Cl)CCCCC1)(C(C)C)C(C)C	HT29 colon	> 100 µM
O=C1N=NC(=O)N1c1cc(C(F)(F)F)cc(C(F)(F)F)c1	HT29 colon	8.1 µM

# TGI lookup, item NC(=O)CCC(NC(=O)Cc1ccccc1)C(=O)O (stereo not drawn) (tested in a mixture with another compound)
> 8130 µM

# TGI lookup, item CC1=NC(C(C)C)C(=O)O1 (stereo not drawn)
> 100 µM

# TGI lookup, item Cc1ccc2c(c1)C(C1Cc3cccc(C)c3C1=O)OC2=O (stereo not drawn)
> 100 µM

# TGI lookup, item CC1=CC(=O)C(=CN2C(=O)/C(=C\c3cccnc3)NC2=S)C(=O)O1
> 100 µM

* * *

Test system: SK-MEL-28 melanoma
Protocol summary: NCI tumour cell line growth inhibition, 48 h
Measured property: TGI

Give SK-MEL-28 melanoma TGI for O=c1c2cc(-c3ccccc3)cnc2sn1-c1ccc(Oc2ccccc2)cc1
> 100 µM

Give SK-MEL-28 melanoma TGI for CS/C(=N\S(=O)(=O)c1cc(C)c(Cl)cc1Cl)NNc1cnc2ccccc2n1
> 100 µM

Give SK-MEL-28 melanoma TGI for C[C@H](N[C@H]1CCC[C@]1(O)C#Cc1ccc2c(c1)OCO2)c1ccccc1
> 25 µM

Give SK-MEL-28 melanoma TGI for CN(C)C1(N(C)C)Oc2c(c(=O)n(C)c(=O)n2C)C(c2ccccc2Br)C1(F)F (stereo not drawn)
> 100 µM

Give SK-MEL-28 melanoma TGI for C/C=C1/CN2CCC34c5ccccc5N(C)C23C2CC1C4(C(=O)OC)C(O)O2 (stereo not drawn)
> 100 µM

Give SK-MEL-28 melanoma TGI for COCCN(CCOC)C(=O)COc1c2cc(C(C)(C)C)cc1Cc1cc(C(C)(C)C)cc(c1OCC(=O)N(CCOC)CCOC)Cc1cc(C(C)(C)C)cc(c1OCC(=O)N(CCOC)CCOC)Cc1cc(C(C)(C)C)cc(c1OCC(=O)N(CCOC)CCOC)Cc1cc(C(C)(C)C)cc(c1OCC(=O)N(CCOC)CCOC)C2
18.6 µM

Give SK-MEL-28 melanoma TGI for NCCCNCCSSC/C=C\CSSCCNCCCN
> 100 µM

Give SK-MEL-28 melanoma TGI for O=C(Cc1ccccc1)NC(c1ccc(Cl)cc1)c1c(O)ccc2ccccc12 (stereo not drawn)
11.6 µM

* * *

System: M14 melanoma
Protocol summary: NCI tumour cell line growth inhibition, 48 h
Attribute: TGI

Solved entries:
Molecule	TGI
COc1cccc(Cn2c(-c3nonc3NC(C)=O)nc3ccccc32)c1	> 100 µM
CCOC(=O)N1CCN(c2nc(C)n(-c3ccccc3)c(=S)c2C#N)CC1	> 100 µM
CCOC(=O)N/N=C(\Cc1ccc([N+](=O)[O-])cc1)OCC	> 100 µM

# TGI lookup, item N=c1n(Cc2ccccc2)c(N)cc(=O)n1Cc1ccccc1
17.8 µM

# TGI lookup, item Cc1ccc(C(=O)C#Cc2c[nH]c(=O)[nH]c2=O)cc1
35 µM

# TGI lookup, item Cn1c(=O)cc(N=Nc2ccc(Cl)c(Cl)c2)[nH]c1=O
47.7 µM

# TGI lookup, item COc1cc([C@H]2CC(=O)C[C@@H](c3cc(OC)c(OC)c(OC)c3)C23C(=O)c2ccccc2C3=O)cc(OC)c1OC
> 100 µM

# TGI lookup, item COC(=O)C1(Cc2cccc(C)c2)Cc2c(C)cccc2C1=O (configuration not stated)
> 100 µM

# TGI lookup, item O=C(NCCNc1nccc(-c2c(-c3ccc(F)cc3)nc3sccn23)n1)c1ccccc1
22.3 µM

# TGI lookup, item Clc1ccc(C2=NN[C@H](c3cn(-c4ccccc4)nc3-c3ccccc3)C2)cc1
32.1 µM
